Known GLP1R EC50 nM (B) of a selection of binders
# assaySystem: human GLP-1R (human, UniProt P43220 24-463)
# measurementNotes: cell-based or functional assay
Non-standard residues stand in square brackets, D forms with d. Groups on a side chain read outwards from the residue. No end group written: not given here. *: point of attachment. C15 diacid = O=C(O)CCCCCCCCCCCCCC(=O)*; acyl = not defined here; Aib = CC(C)(N)C(=O)O
measuredMetric: GLP1R EC50 nM (B) (nM)

{"columns": ["binder", "measuredMetric", "qualifierOperator", "endpointResult"],
 "data": [
  ["YAEGTFISDYSIAMDKIHQQDFVNWLLAQKGKKNDWKHNIIQ (Lys-(palmitoyl acyl fatty acid acyl) at 16; C-terminal -NH2) [Compound No. 3]", "GLP1R EC50 nM (B)", "=", 148],
  ["Y[dA]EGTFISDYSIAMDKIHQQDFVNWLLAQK-OH [Compound No. 4]", "GLP1R EC50 nM (B)", "=", 355],
  ["Y[Aib]EGTFTSDYSI[Aib]LDKIAQRAFVQWLIA[Aib]KGKKQEWKHQITQK(acyl)-NH2 (reading uncertain; also: Lys43 acylated, acyl not given here) [Compound No. 16]", "GLP1R EC50 nM (B)", "<", 0.02],
  ["Y[Aib]EGTFISDYSIALDKK([ethylene glycol-ethylene glycol-C15 diacid])HQQDFVNWLLAQRG-OH [Compound No. 26]", "GLP1R EC50 nM (B)", ">", 1000]
]}
